tested on: NCI-H522 lung; test: NCI-60 one-dose screen, 48 h; details: 10 µM unless noted
This is part of a sample that, as a whole, favours compounds with a hit. Of some 83,000 tested, about 20% had one in any assay. Calls of active or inactive are those of the source. The calls were made as follows: active = growth percent below 10; inactive = the rest.
In this exercise, the only acceptable responses are active, inactive

Lookup: Any idea what this test logged for C=C(C)[C@@H]1CC[C@]2(C(=O)ON)CC[C@]3(C)[C@H](CC[C@@H]4[C@@]5(C)C/C(=C/c6ccc(Br)cc6)C(=O)C(C)(C)[C@@H]5CC[C@]43C)[C@@H]12 ?
Found: inactive

Lookup: Any idea what this test logged for COc1ccc(N2CCN(C(=O)CSc3ccc(-c4nc5cc(C)c(C)cc5[nH]4)cn3)CC2)cc1 ?
Found: inactive

Lookup: Any idea what this test logged for CC(C)=CCc1c(O)c(CC=C(C)C)c2c(c1O)C(=O)C1=C[C@@H]3C[C@H]4C(C)(C)O[C@@](C/C=C(\C)C(=O)O)(C3=O)[C@@]14O2 ?
Found: active

Lookup: Any idea what this test logged for Cc1nn(-c2ccccc2)cc1/C=N/Nc1nc(Nc2ccccc2)nc(Nc2ccc(S(N)(=O)=O)cc2)n1 ?
Found: active

Lookup: Any idea what this test logged for COc1ccc(CCN2C(=O)CSC2=S)cc1OC ?
Found: inactive

Lookup: Any idea what this test logged for C/C(=N/Nc1nc(N/N=C(/C)c2ccc([N+](=O)[O-])cc2)nc(N2CCOCC2)n1)c1ccc([N+](=O)[O-])cc1 ?
Found: inactive

Lookup: Any idea what this test logged for NC(=S)N/N=C(/C=C/c1cn(-c2ccccc2)nc1-c1ccc(Cl)cc1)c1cc2ccccc2oc1=O ?
Found: inactive

Lookup: Any idea what this test logged for IP(CCCCCCCCCCSc1n(Cc2ccc3ccccc3c2)c(-c2ccccc2)c(-c2ccccc2)[n+]1Cc1ccc2ccccc2c1)(c1ccccc1)(c1ccccc1)c1ccccc1 ?
Found: active

Lookup: Any idea what this test logged for CCc1ccc(NC(=O)N[C@@H](Cc2cccc(C)c2)C(=O)N[C@@H]2C(=O)N3CCC[C@H]3C(=O)N3CCCC[C@H]3C(=O)N[C@@H](CO)C(=O)N3C[C@H](C)C[C@H]3C(=O)O[C@H]2C)c(F)c1 ?
Found: inactive

Lookup: Any idea what this test logged for Clc1ccc(-c2nc3ccc(/C(=N\N=C\c4ccccc4)c4ccccc4)cc3[nH]2)cc1 ?
Found: inactive

Lookup: Any idea what this test logged for Oc1ccc(CSc2nnc(-c3ccncc3)o2)c2cccnc12 ?
Found: inactive

Lookup: Any idea what this test logged for CCOC(=O)/C(F)=C/C1CC1CCc1cccc(C(F)(F)F)c1 (centres undefined) ?
Found: inactive

Lookup: Any idea what this test logged for CCOC(=O)c1nn(-c2ccc(C)cc2)c(=O)c2c(N)c(C#N)c(-c3ccc(OC)cc3)cc12 ?
Found: inactive

Lookup: Any idea what this test logged for N=c1c2cc(-c3ccccc3)oc2ncn1/N=C/c1ccccc1 ?
Found: inactive

Lookup: Any idea what this test logged for C#Cc1ccc(NC(=O)c2ccc(/C=C/C(=O)c3nccn3C)cc2)c(F)c1 ?
Found: inactive

Lookup: Any idea what this test logged for Oc1ccc(CSc2nnc(-c3ccc(Oc4ccccc4)cc3)n2-c2ccccc2)c2cccnc12 ?
Found: inactive

Lookup: Any idea what this test logged for CC(C)C[C@H]1C(=O)O[C@H](C(C)C)C(=O)N(C)[C@@H](C(C)C)C(=O)O[C@H](C(C)C)C(=O)N(C)[C@@H](C(C)C)C(=O)O[C@H](C(C)C)C(=O)N1C ?
Found: active

Lookup: Any idea what this test logged for Cc1cc(NS(=O)(=O)c2ccc(-c3cnc(C4CC4)o3)cc2)ccc1I ?
Found: inactive

Lookup: Any idea what this test logged for CC(C)=CCC[C@](C)(O)[C@H]1CC[C@]2(C)[C@@H]1CC[C@@H]1[C@@]3(C)CCC(NC(=O)c4ccccc4C(=O)O)C(C)(C)[C@@H]3CC[C@]12C (some centres undefined) ?
Found: inactive

Lookup: Any idea what this test logged for CC(=O)Nc1ccc(NC(=O)Nc2cccc(-c3nc(-c4ccc(NC(=O)c5cccs5)cc4Cl)no3)c2)cc1C(F)(F)F ?
Found: active

Lookup: Any idea what this test logged for CN1C(=O)N(C)C2C1NN=c1s/c(=C\c3ccccn3)c(=O)n12 (centres undefined) ?
Found: inactive

Lookup: Any idea what this test logged for NC(N)=NS(=O)(=O)c1ccc(N=NC2C(=O)NN(c3ccccc3)C2=O)cc1 (centres undefined) ?
Found: inactive

Lookup: Any idea what this test logged for CCn1c2ccc(/C=N/NS(=O)(=O)CCN(C)C)cc2c2cc(/C=N/NS(=O)(=O)CCN(C)C)ccc21 ?
Found: inactive

Lookup: Any idea what this test logged for O=C(COc1cccc2cccnc12)Nc1ccc(C(=O)/C=C/c2ccc(Cl)cc2)cc1 ?
Found: inactive

Lookup: Any idea what this test logged for O=c1[nH]c(CCl)nc2c1cnn2-c1ccccc1 ?
Found: inactive

Lookup: Any idea what this test logged for Cc1ccc(NC(=O)c2cccc(CN3CCN(C)CC3)c2)cc1Oc1ccc(-c2[nH]nc3ncnc(N)c23)cc1 ?
Found: inactive

Lookup: Any idea what this test logged for C=CCn1c(SCC(=O)Nc2cccc(C(=O)/C=C/c3cccc([N+](=O)[O-])c3)c2)nc2ccccc2c1=O ?
Found: inactive

Lookup: Any idea what this test logged for N#Cc1c(NC(=O)c2ccc(F)c(Cl)c2)sc2c1CCC(=O)C2 ?
Found: active

Lookup: Any idea what this test logged for O=C(/C=C/Nc1ccc(S(=O)(=O)O)cc1)c1ccc(F)cc1 ?
Found: inactive

Lookup: Any idea what this test logged for CS(=O)(=O)c1nccc(-c2c(-c3ccc(F)c(OCCc4ccccc4)c3)nc3sccn23)n1 ?
Found: active

Lookup: Any idea what this test logged for COc1ccc(-c2cc(-c3ccc(Cl)cc3)nc3nc(N)nn23)cc1 ?
Found: inactive

Lookup: Any idea what this test logged for N/C(=N\OC(=O)CSc1nc2ccccc2s1)c1ccc2ccccc2c1 ?
Found: inactive

Lookup: Any idea what this test logged for Cn1ccnc1C(=O)/C=C/c1ccc(C(=O)Nc2ccc(NC(=O)CCNC(=O)c3csc(Br)n3)cc2)cc1 ?
Found: inactive

Lookup: Any idea what this test logged for CCC(=O)Nc1cc(Nc2cc(NC3CC3)n3ncc(C#N)c3n2)ccc1C ?
Found: inactive
